Documented koff across a set of binders
- test target: SARS-CoV spike (S) (SARS-CoV, UniProt P59594 14-1195)
- assay text: SPR, VHH over immobilised S
Numeric answer plus unit only.

Recorded results for 3 binders are shown here.
# binder, result
records = [
    ("NRCoV2-MRed04 VHH (VHH) VHH: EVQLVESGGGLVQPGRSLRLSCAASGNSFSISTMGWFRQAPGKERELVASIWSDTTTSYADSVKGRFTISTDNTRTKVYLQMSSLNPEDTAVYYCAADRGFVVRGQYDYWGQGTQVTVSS", "0.097 s⁻¹"),
    ("NRCoV2-MRed20 VHH (VHH) VHH: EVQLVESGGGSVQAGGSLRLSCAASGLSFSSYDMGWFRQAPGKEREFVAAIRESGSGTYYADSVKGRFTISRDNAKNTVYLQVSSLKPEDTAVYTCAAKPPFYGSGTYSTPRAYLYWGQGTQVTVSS", "0.00406 s⁻¹"),
    ("NRCoV2-S2F3 VHH (VHH) VHH: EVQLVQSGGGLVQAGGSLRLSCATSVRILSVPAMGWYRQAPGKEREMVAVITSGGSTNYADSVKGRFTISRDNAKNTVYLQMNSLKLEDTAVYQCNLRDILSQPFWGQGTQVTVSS", "0.00139 s⁻¹"),
]

Given item NRCoV2-SR01 VHH (VHH) VHH: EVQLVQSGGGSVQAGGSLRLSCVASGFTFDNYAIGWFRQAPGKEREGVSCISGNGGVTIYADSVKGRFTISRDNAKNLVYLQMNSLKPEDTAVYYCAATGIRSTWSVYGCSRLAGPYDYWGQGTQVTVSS , the value recorded as its koff is 0.000105 s⁻¹

get_value(item= NRCoV2-MRed25 VHH (VHH) VHH: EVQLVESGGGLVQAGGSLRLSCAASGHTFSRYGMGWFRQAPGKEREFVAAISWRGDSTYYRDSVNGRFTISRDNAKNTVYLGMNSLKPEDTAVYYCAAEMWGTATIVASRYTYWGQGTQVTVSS , readout=koff) returns 5.01e-05 s⁻¹

// sample NRCoV2-MRed18 VHH (VHH) VHH: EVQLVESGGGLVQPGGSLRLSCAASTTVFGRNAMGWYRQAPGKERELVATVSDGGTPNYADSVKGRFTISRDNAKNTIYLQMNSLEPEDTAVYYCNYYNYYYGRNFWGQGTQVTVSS , its koff was 0.00677 s⁻¹

# binder NRCoV2-S2G4 VHH (VHH) VHH: QVQLVQSGGGLVQAGGSLTLSCAPSGSTFSGYATNWYRQAPGKQRELVATISSDGDKNYADSVKGRFTISRDNAKNTVYLQMNSLKPEDTAVYYCNKHWWTGDWWGQGTQVTVSS ; its koff = 0.000735 s⁻¹
